This collection of values is drawn from PubChem BioAssay AID2060609.

Test system: 855422-203-R-J1-PDC complex spheroids, viability
Assay: Anticancer human tumor 855422-203-R-J1-PDC patient-derived bladder carcinoma cell line growth inhibition [CLK]
Conditions: second compound 1 µM; first compound 0.0316 µM; hits give low values
measured.attribute: viability, T/C (%)
Please reply with the bare figure in % and do not write the unit itself.

Here are 3 compounds together with their reported answers.
COc1c(OCCCN2CCOCC2)ccc2c3n(c(=NC(=O)c4cnc(N)nc4)nc12)CCN3 + CN1CCN(c2cc(C(=O)Nc3cc4cc(-c5cnn(C)c5)ccc4cn3)ccn2)CC1 | 0.09
O=C(c1cc(Cc2n[nH]c(=O)c3ccccc23)ccc1F)N1CCN(C(=O)C2CC2)CC1 + CN1CCN(c2cc(C(=O)Nc3cc4cc(-c5cnn(C)c5)ccc4cn3)ccn2)CC1 | 0.24
C#Cc1c(F)ccc2cc(O)cc(-c3ncc4c(N5CC6CCC(C5)N6)nc(OCC56CCCN5CC(F)C6)nc4c3F)c12 (stereo not drawn) + CN1CCN(c2cc(C(=O)Nc3cc4cc(-c5cnn(C)c5)ccc4cn3)ccn2)CC1 | 0.86

query: Bench note: what viability, T/C did COc1ccc([C@@H](O)c2cc(-c3ncnc4cc(N5CCOCC5)ccc34)c(F)cc2Cl)nn1 + CNC(=O)c1ccc(Nc2nc(OC3CCCC3)c3c(-c4ccc5nc(C)oc5c4)c[nH]c3n2)c(OC)c1 show?
result: 23.3

query: Quick one: viability, T/C of C=CC(=O)N1CCN(c2nc(=O)n(-c3c(C)ccnc3C(C)C)c3nc(-c4c(O)cccc4F)c(F)cc23)C(C)C1 (stereo not drawn) + CNC(=O)c1ccc(Nc2nc(OC3CCCC3)c3c(-c4ccc5nc(C)oc5c4)c[nH]c3n2)c(OC)c1 ?
result: 21.2

query: For the compound shown here, C=C(F)C(=O)N1CCN(c2nc(OCC3CCCN3C)nc3c2CCN(c2cccc4cccc(Cl)c24)C3)CC1CC#N (stereo not drawn) + CNC(=O)c1ccc(Nc2nc(OC3CCCC3)c3c(-c4ccc5nc(C)oc5c4)c[nH]c3n2)c(OC)c1 , give the reported viability, T/C.
result: 21.5

###

Test system: 855422-203-R-J1-PDC complex spheroids, viability
Experiment: Anticancer human tumor 855422-203-R-J1-PDC cell line growth inhibition [CLK];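 further: spheroids exposed to drugs for seven days before readout; 100% = DMSO vehicle control wells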
Details: second compound 1 µM; first compound 0.0316 µM; hits give low values
Excerpt: A high-throughput screen of multi-cell type tumor spheroids was designed to identify active combinations of […] and targeted small molecules. Complex spheroids include a stromal component modeled by human endothelial cells (HUVEC) and fibroblasts modeled by human mesenchymal stem cells (MSCs). […] Compounds. […] If the clinical Cmax for an agent had not been determined, the highest concentration tested was 10 microM. […]
This listing pairs compounds with measured viability, T/C.
Return type: number; implicit unit %.

Example entries begin here.
Nc1ccccc1NC(=O)c1ccc(CNC(=O)OCc2cccnc2)cc1 + CN1CCN(c2cc(C(=O)Nc3cc4cc(-c5cnn(C)c5)ccc4cn3)ccn2)CC1 | 0.15
Cn1ncnc1[C@H]1c2n[nH]c(=O)c3cc(F)cc(c23)N[C@@H]1c1ccc(F)cc1 + CN1CCN(c2cc(C(=O)Nc3cc4cc(-c5cnn(C)c5)ccc4cn3)ccn2)CC1 | 4.07
Nc1ccn(C2OC(CO)C(O)C2(F)F)c(=O)n1 (stereo unspecified) + CNC(=O)c1ccc(Nc2nc(OC3CCCC3)c3c(-c4ccc5nc(C)oc5c4)c[nH]c3n2)c(OC)c1 | 18.6

query: Any idea what its viability, T/C is? The compound is CCN1CCN(Cc2ccc(Nc3ncc(F)c(-c4cc(F)c5nc(C)n(C(C)C)c5c4)n3)nc2)CC1 + CNC(=O)c1ccc(Nc2nc(OC3CCCC3)c3c(-c4ccc5nc(C)oc5c4)c[nH]c3n2)c(OC)c1
result: 18

query: Data request, read-out viability, T/C, for O=c1[nH]cc(F)c(=O)[nH]1 + CNC(=O)c1ccc(Nc2nc(OC3CCCC3)c3c(-c4ccc5nc(C)oc5c4)c[nH]c3n2)c(OC)c1
result: 23.3

query: Look up viability, T/C: CC(Nc1ccc2c(c1)OCCn1cc(N3C(=O)OCC3C(F)F)nc1-2)C(N)=O (stereo unspecified) + CN1CCN(c2cc(C(=O)Nc3cc4cc(-c5cnn(C)c5)ccc4cn3)ccn2)CC1
result: 0.18

query: Given the compound C#Cc1c(F)ccc2cc(O)cc(-c3ncc4c(N5CC6CCC(C5)N6)nc(OCC56CCCN5CC(F)C6)nc4c3F)c12 (stereo unspecified) + CNC(=O)c1ccc(Nc2nc(OC3CCCC3)c3c(-c4ccc5nc(C)oc5c4)c[nH]c3n2)c(OC)c1 , what is its reported viability, T/C?
result: 19.8

query: Look at this compound and give its reported viability, T/C. Nc1ccn(C2OC(CO)C(O)C2(F)F)c(=O)n1 (stereo unspecified) + CN1CCN(c2cc(C(=O)Nc3cc4cc(-c5cnn(C)c5)ccc4cn3)ccn2)CC1
result: 1.32

query: Reported viability, T/C for O=c1[nH]cc(F)c(=O)[nH]1 + CN1CCN(c2cc(C(=O)Nc3cc4cc(-c5cnn(C)c5)ccc4cn3)ccn2)CC1 : what is it?
result: 0.14

query: Given the entry CC1COCCN1c1cc(C2(S(C)(=N)=O)CC2)nc(-c2ccnc3[nH]ccc23)n1 (stereo unspecified) + CNC(=O)c1ccc(Nc2nc(OC3CCCC3)c3c(-c4ccc5nc(C)oc5c4)c[nH]c3n2)c(OC)c1 , report its measured viability, T/C.
result: 22.3

query: Entry CC(=O)O[C@H]1C(=O)[C@@]2(C)[C@H]([C@H](OC(=O)c3ccccc3)[C@]3(O)C[C@H](OC(=O)[C@H](O)[C@@H](NC(=O)c4ccccc4)c4ccccc4)C(C)=C1C3(C)C)[C@]1(OC(C)=O)CO[C@@H]1C[C@@H]2O + CN1CCN(c2cc(C(=O)Nc3cc4cc(-c5cnn(C)c5)ccc4cn3)ccn2)CC1 : reported viability, T/C = ?
result: 0.21

###

System: 855422-203-R-J1-PDC complex spheroids, viability
Experiment: Anticancer human tumor 855422-203-R-J1-PDC cell line growth inhibition [CLK];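 further: spheroids exposed to drugs for seven days before readout; 100% = DMSO vehicle control wells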
Settings: second compound 1 µM; first compound 0.1 µM; hits give low values
Reported viability, T/C by item:

A selection of reference data follows.
C=C(F)C(=O)N1CCN(c2nc(OCC3CCCN3C)nc3c2CCN(c2cccc4cccc(Cl)c24)C3)CC1CC#N (stereo not drawn) + CN1CCN(c2cc(C(=O)Nc3cc4cc(-c5cnn(C)c5)ccc4cn3)ccn2)CC1 | 0.34%
C=CC(=O)N1CCN(c2nc(=O)n(-c3c(C)ccnc3C(C)C)c3nc(-c4c(O)cccc4F)c(F)cc23)C(C)C1 (stereo not drawn) + CN1CCN(c2cc(C(=O)Nc3cc4cc(-c5cnn(C)c5)ccc4cn3)ccn2)CC1 | 0.27%

query: What measured viability, T/C goes with Nc1ccn(C2OC(CO)C(O)C2(F)F)c(=O)n1 (stereo not drawn) + CN1CCN(c2cc(C(=O)Nc3cc4cc(-c5cnn(C)c5)ccc4cn3)ccn2)CC1 ?
result: 0.15%

###

Test system: 855422-203-R-J1-PDC complex spheroids, viability
Assay: Anticancer human tumor 855422-203-R-J1-PDC cell line growth inhibition [CLK];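 further: spheroids exposed to drugs for seven days before readout; 100% = DMSO vehicle control wells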
Details: second compound 0.1 µM; first compound 10 µM; hits give low values
Reported values of viability, T/C for individual entries
Report as a plain number; the unit % is understood.

COC1C=CCC(C)C(C)S(=O)(=O)NC(=O)c2ccc3c(c2)N(CC2CCC21)CC1(CCCc2cc(Cl)ccc21)CO3 (stereo unspecified) + CNC(=O)c1ccc(Nc2nc(OC3CCCC3)c3c(-c4ccc5nc(C)oc5c4)c[nH]c3n2)c(OC)c1 | 33.3
CC(Nc1ccc2c(c1)OCCn1cc(N3C(=O)OCC3C(F)F)nc1-2)C(N)=O (stereo unspecified) + CNC(=O)c1ccc(Nc2nc(OC3CCCC3)c3c(-c4ccc5nc(C)oc5c4)c[nH]c3n2)c(OC)c1 | 12

query: Quick one: viability, T/C for CC1COCCN1c1cc(C2(S(C)(=N)=O)CC2)nc(-c2ccnc3[nH]ccc23)n1 (stereo unspecified) + CNC(=O)c1ccc(Nc2nc(OC3CCCC3)c3c(-c4ccc5nc(C)oc5c4)c[nH]c3n2)c(OC)c1 ?
result: 11.6

query: Please look up its viability, T/C: C#Cc1c(F)ccc2cc(O)cc(-c3ncc4c(N5CC6CCC(C5)N6)nc(OCC56CCCN5CC(F)C6)nc4c3F)c12 (stereo unspecified) + CNC(=O)c1ccc(Nc2nc(OC3CCCC3)c3c(-c4ccc5nc(C)oc5c4)c[nH]c3n2)c(OC)c1
result: 22

query: Given O=c1[nH]cc(F)c(=O)[nH]1 + CN1CCN(c2cc(C(=O)Nc3cc4cc(-c5cnn(C)c5)ccc4cn3)ccn2)CC1 , state its recorded viability, T/C.
result: 39.7

query: What value of viability, T/C has been reported for the following molecule? C=C(F)C(=O)N1CCN(c2nc(OCC3CCCN3C)nc3c2CCN(c2cccc4cccc(Cl)c24)C3)CC1CC#N (stereo unspecified) + CNC(=O)c1ccc(Nc2nc(OC3CCCC3)c3c(-c4ccc5nc(C)oc5c4)c[nH]c3n2)c(OC)c1
result: 0.11
